All figures here come from the supplement of paper PMC8728848.

- Test target: Man(a1-2)Man(a1-3)[Man(a1-6)]Man(a1-6)[Man(a1-2)Man(a1-3)]Man(b1-4)GlcNAc(b1-4)GlcNAc
- Assay: glycan array binding signal (z-score within array); higher = stronger binding
- Measurement context: glycan notation: IUPAC condensed, linker removed
The entries come from a sample that favours the strongest signals as a whole.
Recorded metric: glycan array binding signal (z-score)

glycan array binding signal (z-score) lookup needed for Mannose Binding Protein (Lactobacillus plantarum) (protein) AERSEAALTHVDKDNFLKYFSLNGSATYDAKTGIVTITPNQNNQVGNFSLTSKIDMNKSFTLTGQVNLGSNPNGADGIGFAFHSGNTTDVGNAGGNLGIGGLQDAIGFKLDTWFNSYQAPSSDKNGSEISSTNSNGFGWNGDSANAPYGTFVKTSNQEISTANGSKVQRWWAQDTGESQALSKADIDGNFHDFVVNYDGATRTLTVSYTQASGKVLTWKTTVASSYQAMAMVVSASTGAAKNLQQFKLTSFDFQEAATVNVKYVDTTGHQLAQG , thanks.
0.227

Follow-up entry: DGL (Dioclea grandiflora), P08902 (protein) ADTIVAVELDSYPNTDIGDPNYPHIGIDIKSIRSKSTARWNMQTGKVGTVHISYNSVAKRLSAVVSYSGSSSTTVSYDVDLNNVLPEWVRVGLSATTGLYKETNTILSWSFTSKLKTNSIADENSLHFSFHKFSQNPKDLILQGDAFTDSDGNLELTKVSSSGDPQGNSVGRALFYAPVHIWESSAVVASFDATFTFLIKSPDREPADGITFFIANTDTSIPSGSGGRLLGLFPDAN
6.68

Follow-up entry: HHA (Hippeastrum hybrid) (protein) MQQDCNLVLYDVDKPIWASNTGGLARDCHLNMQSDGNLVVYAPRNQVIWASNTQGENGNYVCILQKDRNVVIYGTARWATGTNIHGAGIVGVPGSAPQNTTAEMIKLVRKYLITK
3.35

Follow-up entry: OrysaEULS2 (Oryza sativa) (protein) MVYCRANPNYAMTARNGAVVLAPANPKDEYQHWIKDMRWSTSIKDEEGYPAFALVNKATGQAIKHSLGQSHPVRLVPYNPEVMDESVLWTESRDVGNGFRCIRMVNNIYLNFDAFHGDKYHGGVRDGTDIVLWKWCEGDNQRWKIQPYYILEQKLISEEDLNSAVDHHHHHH
1.35
